Target: T1, human activated protein C (human, UniProt P04070 43-197; P04070 212-461)
T1 construct: In the plasma assays aPC is generated in human plasma with Protac; also called aPC; haPC
Experiment: Octet BLI, antibody on Protein A sensor, huAPC 3.13-50 nM, 1:1 model, 25 C, pH 7.4
Description: Assay method: Octet analysis was carried out at 25° C. using a Protein A Octet biosensor in 1× Kinetics buffer. During the kinetics assay, the baseline step assay was run in 1× Kinetics buffer for 120 seconds, and then run for 240 seconds after the antibody was loaded to the biosensor. Next, the baseline 2 step assay was run in 1× Kinetics buffer for 120 seconds. […] The 1× Kinetics buffer was used as a blank control to show the natural dissociation of the antibody in the buffer. […]
Kindly state Kd for each of the entries shown.
Answers are plain numbers, in nM.

# example entries with known answers
• Humanized antibody 14 (HAPC-14) (antibody, V domains shown, also called Humab001-14; NO; 14 antibody) VH: EVQLVESGGGLVQPGGSLRLSCAASGFTFSNYYLNWVRQAPGKGLEWVGDIRLKSNNYEKHYAESVKGRFTISRDDSKSITYLQMNSLRAEDTAVYYCAREGDYFDYWGQGTTVTVSS VL: DIQLTQSPSSLSASVGDRVTITCRASESVDSFGATFMHWYQQKPGKAPKLLIYLASNLESGVPSRFSGSGSGTDFTLTISSLQPEDFATYYCQQNNEDPYTFGQGTKLEIK = 254
• HAPC-14-5 (antibody, V domains shown, Whole IgG, backbone hIgG1; also called HPAC 14-5) VH: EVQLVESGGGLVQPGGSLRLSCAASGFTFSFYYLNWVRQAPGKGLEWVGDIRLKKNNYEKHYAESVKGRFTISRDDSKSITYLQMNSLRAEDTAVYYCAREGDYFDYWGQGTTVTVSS VL: DIQLTQSPSSLSASVGDRVTITCRASESVDSFGATFMHWYQQKPGKAPKLLIYLASWLGSGVPSRFSGSGSGTDFTLTISSLQPEDFATYYCVQNNEDPYTFGQGTKLEIK = 2.83
• HAPC-14-2 (antibody, V domains shown, Whole IgG, backbone hIgG1; also called HPAC 14-2) VH: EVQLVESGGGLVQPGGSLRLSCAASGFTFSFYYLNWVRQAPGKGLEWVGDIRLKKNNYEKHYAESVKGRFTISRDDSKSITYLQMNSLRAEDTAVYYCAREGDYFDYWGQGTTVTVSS VL: DIQLTQSPSSLSASVGDRVTITCRASESVDSFGATFMHWYQQKPGKAPKLLIYLASWLESGVPSRFSGSGSGTDFTLTISSLQPEDFATYYCVQNNEDPYTFGQGTKLEIK = 3.78

Below are some binders; for each one, tell me its Kd.
1. HAPC-14-8 (antibody, V domains shown, Whole IgG, backbone hIgG1; also called HPAC 14-8) VH: EVQLVESGGGLVQPGGSLRLSCAASGFTFSFYYLNWVRQAPGKGLEWVGDIRLKKNNYEKHYAESVKGRFTISRDDSKSITYLQMNSLRAEDTAVYYCAREGDTFDYWGQGTTVTVSS VL: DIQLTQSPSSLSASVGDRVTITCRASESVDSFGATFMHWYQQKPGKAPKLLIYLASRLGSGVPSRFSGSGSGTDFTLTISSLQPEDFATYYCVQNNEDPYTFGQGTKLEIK
2. HAPC-14-6 (antibody, V domains shown, Whole IgG, backbone hIgG1; also called HPAC 14-6; No. 6) VH: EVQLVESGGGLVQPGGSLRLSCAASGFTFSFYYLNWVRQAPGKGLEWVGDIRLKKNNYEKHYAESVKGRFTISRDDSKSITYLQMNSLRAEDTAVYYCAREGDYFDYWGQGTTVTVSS VL: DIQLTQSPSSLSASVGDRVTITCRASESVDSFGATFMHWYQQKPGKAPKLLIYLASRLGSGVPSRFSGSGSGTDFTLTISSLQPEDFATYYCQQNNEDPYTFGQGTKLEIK
3. HAPC-14-7 (antibody, V domains shown, Whole IgG, backbone hIgG1; also called HPAC 14-7) VH: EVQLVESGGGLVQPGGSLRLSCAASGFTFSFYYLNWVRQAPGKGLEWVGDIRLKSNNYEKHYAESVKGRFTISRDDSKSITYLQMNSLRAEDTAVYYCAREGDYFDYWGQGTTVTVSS VL: DIQLTQSPSSLSASVGDRVTITCRASESVDSFGATFMHWYQQKPGKAPKLLIYLASRLESGVPSRFSGSGSGTDFTLTISSLQPEDFATYYCQQNNEDPYTFGQGTKLEIK
4. HAPC-14-10 (antibody, V domains shown, Whole IgG, backbone hIgG1; also called HPAC 14-10) VH: EVQLVESGGGLVQPGGSLRLSCAASGFTFSNYYLNWVRQAPGKGLEWVGDIRLKKNNYEKHYAESVKGRFTISRDDSKSITYLQMNSLRAEDTAVYYCAREGDTFDYWGQGTTVTVSS VL: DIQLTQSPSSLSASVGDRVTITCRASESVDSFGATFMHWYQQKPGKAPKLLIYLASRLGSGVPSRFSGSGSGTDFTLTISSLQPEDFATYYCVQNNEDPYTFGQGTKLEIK
5. HAPC-14-4 (antibody, V domains shown, Whole IgG, backbone hIgG1; also called HPAC 14-4) VH: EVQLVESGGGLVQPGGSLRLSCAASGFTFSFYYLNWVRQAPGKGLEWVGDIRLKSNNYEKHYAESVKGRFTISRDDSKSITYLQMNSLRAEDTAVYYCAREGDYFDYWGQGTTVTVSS VL: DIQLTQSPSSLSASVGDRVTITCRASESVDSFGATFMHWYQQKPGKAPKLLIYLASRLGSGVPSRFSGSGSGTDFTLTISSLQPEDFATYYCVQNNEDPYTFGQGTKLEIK
6. HAPC-14-3 (antibody, V domains shown, Whole IgG, backbone hIgG1; also called HPAC 14-3; No. 3) VH: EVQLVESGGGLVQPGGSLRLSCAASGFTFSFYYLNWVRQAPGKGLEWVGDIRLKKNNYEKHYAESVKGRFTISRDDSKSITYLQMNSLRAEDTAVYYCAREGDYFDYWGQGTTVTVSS VL: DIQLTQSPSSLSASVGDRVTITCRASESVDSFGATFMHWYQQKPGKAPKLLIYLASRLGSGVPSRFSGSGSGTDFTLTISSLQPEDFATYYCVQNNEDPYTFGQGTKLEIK

10.5
3.64
7.72
19
4.06
2.67
